Quick reference for GI50 among some molecules
System: A498
Experiment: NCI tumour cell line growth inhibition, 48 h
Active and inactive are the calls of the source. Rule as the data show it: active = GI50 up to about 1.1 µM and inactive = higher.

Consider the following illustrative entries.
INSERT INTO assay_data (molecule, result) VALUES
  ('O=C(CNC(=O)OCc1ccccc1)Oc1ccccc1', '> 100 µM (inactive)'),
  ('C/C(=N\Nc1nc2ccccc2s1)c1ccncn1', '> 100 µM (inactive)'),
  ('N#CCCCCC12C3C(=O)N(c4ccccc4)C(=O)C3ON1O[C@@H]1C(=O)N(c3ccccc3)C(=O)[C@@H]12 (some centres undefined)', '> 100 µM (inactive)'),
  ('O=C1CCC2c3ccccc3NCN12 (centres undefined)', '> 100 µM (inactive)'),
  ('CN(C)CCCOc1nc2c(c(=O)n(C)c(=O)n2C)n1C.SC1=NC=NC2=NC=NC12', '32.8 µM (inactive)'),
  ('CN(C)c1ccc(/C=C(\NC(=O)c2ccccc2)C(=O)Nc2cccc(C(=O)NCCCO)c2)cc1', '> 100 µM (inactive)'),
  ('CSc1nc(Nc2ccccc2Cl)c2c(N)nn(C)c2n1', '> 100 µM (inactive)'),
  ('COc1cccc(N2C(=O)C3C4C=C5c6ccccc6N(c6ccccc6)C5(C3C2=O)[C@H]2C(=O)N(c3cccc(OC)c3)C(=O)[C@@H]42)c1 (some centres undefined)', '> 100 µM (inactive)');

For the next question, use this molecule.
-- ask Checklist item: GI50 tested on A498, entry "C[N+](C)(C)CC(=O)N/N=C/c1oc(-c2c(O)ccc3ccccc23)c(-c2c(O)ccc3ccccc23)c1[N+](=O)[O-]" , value?
-- reply 16.9 µM (inactive)

---

Tested on: UO-31
Experiment: NCI tumour cell line growth inhibition, 48 h
Active and inactive are the calls of the source. Rule as the data show it: active = GI50 up to about 1.1 µM and inactive = higher.
Just give me one of these, please: active, inactive

-- ask Please state the recorded outcome for this molecule: CC(NNC(=O)CC(=O)N(C(=O)c1ccccc1)c1ccc(Cl)cc1)c1cc2ccccc2oc1=O (stereo not given)
-- reply active

-- ask # outcome recorded in this test, key = "COc1cc2c(=O)cnoc2cc1O"
-- reply inactive

-- ask Please state the recorded outcome for this molecule: "Cc1cc(Cl)ccc1N1C(=O)C(=O)C(c2nc3ccccc3s2)C(=O)C1=O"
-- reply inactive

-- ask Status in this test for CC(Cc1ccc(O)cn1)(NC(=O)c1ccccc1)C(=O)O (stereo not given) ?
-- reply inactive

-- ask For this molecule, state the assay outcome: "C/C(=N\NC(=O)CC(=O)N(C(=O)c1ccc(Cl)cc1)c1ccc(C)cc1)c1ccccc1O"
-- reply inactive

-- ask Recorded test outcome, item "COc1ccccc1-n1c(NN)nc2ccc(Br)cc2c1=O"
-- reply inactive

-- ask Called result for O=C(O)C1CC(O)CN1 (stereo not given)
-- reply inactive

-- ask Identify the outcome logged in this assay for the molecule shown: CN(C)c1ccc(C2CC(=O)CC(c3ccc(N(C)C)cc3)C23C(=O)NC(=O)NC3=O)cc1 (stereo not given)
-- reply inactive

-- ask Call for entry "COCCOCOc1ccc(OCOCCOC)c2c1C(=O)c1ccccc1C2=O" :
-- reply inactive

-- ask Answer briefly: the call reported for COc1cccc(N2C(=O)C3C4C=C5c6ccccc6N(c6ccccc6)C5(C3C2=O)[C@H]2C(=O)N(c3cccc(OC)c3)C(=O)[C@@H]42)c1 (stereo not given in full) in this assay.
-- reply inactive
